TARGET: Voltage-gated potassium channel subunit beta-2 (Rattus norvegicus)
EXPERIMENT_SUMMARY: inhibitors of rat Kvbeta2 reductase activity – biochemical, NADPH fluorescence, primary screen (AID 622);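 further: slope of raw intensity against log time taken from 70 to 1610 s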
CONDITION_NOTES: recombinant KvBeta, 4-cyanobenzaldehyde reduction, at 10 µM, hits give high values
# label = fulfilled if fluorescence slope >= -0.5 else not fulfilled

Tell me whether fluorescence slope is at least -0.5 here: CCOC(=O)c1sc2nc(NC(=O)COc3ccccc3)sc2c1C
not fulfilled

Say whether CCn1c(=N)n(CC(=O)c2ccco2)c2ccccc21 shows fluorescence slope of -0.5 or more.
fulfilled

Reported fluorescence slope at or above -0.5? COc1ccc(-c2noc(-c3ccccc3C(=O)Nc3cccnc3)n2)cc1
not fulfilled

Is it the case that O=C(NCCCN1CCN(Cc2ccccc2)CC1)C1CCN(c2nnc(-n3cccc3)s2)CC1 has fluorescence slope reaching or exceeding -0.5?
fulfilled

# bool: fluorescence slope of Nc1c(N2CCCCC2)c(=O)[nH]c(=O)n1-c1ccccc1 >= -0.5
fulfilled

I'd appreciate it if you could say whether O=C(c1cccc(C(=O)N2CCN(c3ccc(F)cc3)CC2)c1)N1CCN(c2ccc(F)cc2)CC1 has fluorescence slope at least equal to -0.5.
fulfilled

I'd appreciate it if you could say whether CCOc1ccc(C(=O)Nc2cc(C)on2)cc1OCC has fluorescence slope at least equal to -0.5.
fulfilled

Record CCOC(=O)CSc1nc2ccccc2n1CC(=O)N1CCN(c2ccccc2)CC1 ; criterion: fluorescence slope no lower than -0.5. Met?
not fulfilled

In plain terms: is recorded fluorescence slope at least -0.5 for O=C1C2C3C=CC(C3=C3CCCCC3)C2C(=O)N1c1ccccc1 (stereo unspecified) ?
not fulfilled

Can COc1ccc(S(=O)(=O)N(CCN2CCOCC2)Cc2cc(OC)ccc2OC)cc1 be said to have fluorescence slope at or above -0.5?
not fulfilled

Evaluate CC(=O)C1=C(O)C(=O)N(C2CCCCC2)C1c1ccccc1 (stereo unspecified) : fluorescence slope at minimum -0.5?
fulfilled

API: above_or_equal(metric=fluorescence slope, cutoff=-0.5) for item Cn1cc(Cl)c(C(=O)N(Cc2ccccc2)c2ccccn2)n1
not fulfilled

Given the entry CCn1c(SCC(=O)N2CCN(c3ccc(Cl)cc3)CC2)nc2ccccc2c1=O , answer whether its fluorescence slope meets or surpasses -0.5.
not fulfilled

Is fluorescence slope for CCn1c(CCNC(=O)c2cccs2)nnc1SCC(=O)c1ccc(OC)cc1 at or above -0.5?
fulfilled

For this molecule, is measured fluorescence slope -0.5 or higher? CCc1c(C(=O)Nc2ncn(Cc3cccc(C)c3)n2)csc1C
fulfilled

Decide: fluorescence slope of O=C(NCc1ccccc1)C1CCN(S(=O)(=O)N2CCCCCC2)CC1 >= -0.5?
fulfilled

Confirm if fluorescence slope reported for the molecule Cc1nc2cc(CO)ccc2n1C is -0.5 or above.
not fulfilled

Is fluorescence slope for COc1ccc(OC)c(S(=O)(=O)Nc2ccc(O)c3ccccc23)c1 at or above -0.5?
fulfilled

Evaluate O=C(c1cnn2c(C(F)F)cc(-c3ccccc3)nc12)N1CCN2CCCC2C1 (stereo unspecified) : fluorescence slope at minimum -0.5?
fulfilled

Decide: is the reported value of fluorescence slope for COc1cccc(-c2nc(-c3ccc(NC(=O)Cc4ccccc4OC)cc3)no2)c1 equal to or greater than -0.5?
not fulfilled

I'd appreciate it if you could say whether Cn1c(=O)c2c(nc(SCCCC#N)n2Cc2c(F)cccc2Cl)n(C)c1=O has fluorescence slope at least equal to -0.5.
not fulfilled

Threshold query (fluorescence slope >= -0.5) on Cc1cc(NCCN(C)C)n2nc(-c3cccs3)cc2n1
fulfilled

Is fluorescence slope at least -0.5? Consider CCOc1ccc(S(=O)(=O)Nc2ccc(Cl)cn2)c(C)c1C
fulfilled

Quick check: does CC(C)(C)c1ccc(-c2nnc(SCCC#N)n2C2CCCC2)cc1 have fluorescence slope greater than or equal to -0.5?
fulfilled

Please check the record CC(C)C(C(=O)Nc1ccc2c(c1)OCO2)N1C(=O)c2ccccc2C1=O (stereo unspecified) and state if its fluorescence slope is at or above -0.5.
fulfilled

Form field: fluorescence slope at least -0.5? Entry: Cc1ccccc1OCc1nnc(SCC(=O)NCc2ccccc2)n1C
not fulfilled

Assess whether reported fluorescence slope for Cc1cccc(NC(=O)CC2CCC2)c1 sits at -0.5 or higher.
fulfilled

API: above_or_equal(metric=fluorescence slope, cutoff=-0.5) for item Cc1nn(-c2ccc(F)cc2)c(C)c1NS(=O)(=O)c1ccc(Cl)cc1
fulfilled

Say whether O=S(=O)(c1ccc(S(=O)(=O)N(Cc2ccco2)Cc2ccccc2Cl)cc1)N1CCCC1 shows fluorescence slope of -0.5 or more.
not fulfilled

Say whether COc1ccc2c(C(F)(F)F)cc(=O)oc2c1C shows fluorescence slope of -0.5 or more.
fulfilled

Could you please find out whether Cc1cccc(NC(=O)CN(C)S(=O)(=O)c2ccccc2)n1 has fluorescence slope that meets -0.5 or exceeds it?
fulfilled

Please check the record Cn1c(C(=O)OC(C(=O)NC2CCCC2)c2cccnc2)cc2sccc21 (stereo unspecified) and state if its fluorescence slope is at or above -0.5.
fulfilled

Tell me whether fluorescence slope is at least -0.5 here: CC(=O)N1C(=O)N(C)C2C1N(C(C)=O)C(=O)N2C (stereo unspecified)
not fulfilled

Is fluorescence slope at least -0.5? Consider COCCN(C(=O)CNC(=O)c1ccco1)C(C(=O)NC1CCCCC1)c1cccc(OC)c1 (stereo unspecified)
fulfilled

Does Cc1cc(NC(=O)CSc2nc3c(c(-c4cccnc4)c2C#N)CCC3)no1 have a reported fluorescence slope of at least -0.5?
fulfilled
